Origin of values: ChEMBL document CHEMBL3352451

target: Mu-type opioid receptor (Rattus norvegicus, UniProt P33535); assay: Displacement of [3H]DAMGO from MOR in Wistar rat brain membranes by liquid scintillation counting method
Sequence (P33535 whole entry): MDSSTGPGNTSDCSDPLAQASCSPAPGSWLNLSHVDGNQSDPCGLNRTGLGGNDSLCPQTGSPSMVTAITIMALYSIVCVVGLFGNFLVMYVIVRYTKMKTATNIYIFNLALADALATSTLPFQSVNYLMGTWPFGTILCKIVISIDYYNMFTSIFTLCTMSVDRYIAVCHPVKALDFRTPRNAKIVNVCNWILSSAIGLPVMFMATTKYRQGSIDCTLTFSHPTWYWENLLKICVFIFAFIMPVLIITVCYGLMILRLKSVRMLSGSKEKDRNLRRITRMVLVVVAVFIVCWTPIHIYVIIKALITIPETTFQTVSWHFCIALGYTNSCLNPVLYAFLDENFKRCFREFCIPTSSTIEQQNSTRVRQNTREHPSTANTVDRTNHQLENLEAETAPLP
REPORTED METRIC: pIC50
The meaning of pIC50 here: minus log10 of the concentration in molar units.

Worked cases, answers included:
{"SMILES TEXT": "Cc1cc(O)cc(C)c1C[C@H](N)C(=O)N[C@@H]1C[C@H]2CC[C@H](CC2)NC(=O)C[C@@H](C(N)=O)NC(=O)[C@H](Cc2ccccc2)NC(=O)[C@H](Cc2ccccc2)NC1=O", "pIC50": 10.40}
{"SMILES TEXT": "NC(=O)[C@@H]1CC(=O)N[C@H]2CC[C@@H](CC2)C[C@@H](NC(=O)[C@@H](N)Cc2ccc(O)cc2)C(=O)N[C@@H](Cc2ccccc2)C(=O)N[C@@H](Cc2ccccc2)C(=O)N1", "pIC50": 8.68}
{"SMILES TEXT": "Cc1cc(O)cc(C)c1C[C@H](N)C(=O)N[C@@H]1C[C@H]2CC[C@@H](CC2)NC(=O)C[C@@H](C(N)=O)NC(=O)[C@H](Cc2ccccc2)NC(=O)[C@H](Cc2ccccc2)NC1=O", "pIC50": 10.66}

Query pIC50 for NC(=O)[C@@H]1CC(=O)N[C@H]2CC[C@H](CC2)C[C@@H](NC(=O)[C@@H](N)Cc2ccc(O)cc2)C(=O)N[C@@H](Cc2ccccc2)C(=O)N[C@@H](Cc2ccccc2)C(=O)N1
8.49
